- Target Under Test: T1, human Nectin-4-eGFP on T24 cells (clone 3) (human, UniProt Q96NY8 32-510)
- T1 sequence: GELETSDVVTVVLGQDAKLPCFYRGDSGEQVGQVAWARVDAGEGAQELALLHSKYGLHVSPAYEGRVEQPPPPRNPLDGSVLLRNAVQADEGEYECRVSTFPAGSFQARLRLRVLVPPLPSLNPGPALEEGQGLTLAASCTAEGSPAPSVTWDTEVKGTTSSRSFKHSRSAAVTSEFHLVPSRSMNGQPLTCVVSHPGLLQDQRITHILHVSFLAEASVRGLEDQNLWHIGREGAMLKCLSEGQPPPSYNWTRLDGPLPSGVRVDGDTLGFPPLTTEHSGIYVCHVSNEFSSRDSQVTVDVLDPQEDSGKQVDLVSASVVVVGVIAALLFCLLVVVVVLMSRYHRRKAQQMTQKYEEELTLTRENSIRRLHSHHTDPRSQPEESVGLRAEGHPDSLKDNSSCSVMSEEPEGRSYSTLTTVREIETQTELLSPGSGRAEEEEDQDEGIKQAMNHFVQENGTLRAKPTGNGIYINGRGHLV
- Assay Method Text: cell-based or functional assay
Checkbox rule: EC50 (nM) of nectin-4-eGFP signal loss lower than 3 nM = true (1); EC50 (nM) of nectin-4-eGFP signal loss not lower than 3 nM = false (0).

## Task is_below(EC50 (nM) of nectin-4-eGFP signal loss, 3 nM) for Ab6 (antibody, human IgG1, lambda, L234A L235A, V domains shown, Unconjugated antibody; also called Antibody 6; nectin-4 antibody Ab6) VH: QVQLVQSGAEVKKPGASVKVSCKASGYTFTGYYMHWVRQAPGQGLEWMGIINPSGGSTTYAQKFQGRVTMTRDTSTSTVYMELSSLRSEDTAVYYCARGRLGTYFDYWGQGTLVTVSS VL: SYVLTQPPSVSVAPGQTARITCGGNNIGSKSVHWYQQKPGQAPVLVVYDDSDRPSGIPERFSGSNSGNTATLTISRVEAGDEADYYCQVWDRSSDQVVFGGGTKLTVLG ?
## Result false (0)

## Task # repeat for Ab4 (antibody, human IgG1, kappa, L234A L235A, V domains shown, Unconjugated antibody; also called Antibody 4) VH: QVQLQESGPGLVKPSETLSLTCTVSGGSISGYYWSWIRQPPGKGLEWIGYIYYSGSTNYNPSLKSRVTISVDTSKNQFSLKLSSVTAADTAVYYCARLGIFFDAFDIWGQGTLVTVSS VL: DIQLTQSPSFLSASVGDRVTITCRASQGISSYLAWYQQKPGKAPKLLIYAASTLQSGVPSRFSGSGSGTEFTLTISSLQPEDFATYYCQQFNSYPWTFGQGTKVEIKR
## Result true (1)

## Task Follow-up item: Ab1a (antibody, human IgG1, kappa, L234A L235A, V domains shown, Unconjugated antibody; also called nectin-4 antibody Ab1a) VH: QVQLVQSGAQVKKPGASVKVSCKASGYTFTGYYIHWVRQAPGQGLEWMGWINPNSGGTNYAQKFQGRVTMTRDTSISTAYMELSRLRSDDTAVYFCAREDWDFDYWGQGTLVTVSS VL: EIVLTQSPGTLSLSPGERATLSCRTSQSVSSSYLAWYQQKPGQAPRLLIYGASNRATDIPDRFSGSGSGTDFTLTINRLEPEDFAVYYCQQYGSSPITFGQGTRLEIKR
## Result true (1)

## Task Same read-out for Ab3 ADC (Ab3 conjugated as in Formula XI, DAR of 8) (antibody, human IgG1, kappa, L234A L235A, V domains shown, camptothecin analog linker-payload of Formula XI on cysteine thiols after full reduction, DAR of 8 per antibody; positions not given, Antibody-drug conjugate of Ab3; also called Ab3 (ADC column)) VH: EVQLVESGGGLVKPGGSLRLSCAASGFNLNHYNMNWVRQAPGKGLEWVSSVSSGGGFRYYADSVRGRFTISRDNAKNSLYLQMNSLRAEDTAVYYCARGAVFHDAFDIWGQGTLVTVSS VL: DIQLTQSPSFLSASVGDRVTITCRASQDISSYLAWYQQKPGKAPKLLIYVASTLQSGVPSRFSGSGSGTEFTLTISSLQPEDFATYYCQQINSYPFTFGQGTKVEIKR ?
## Result true (1)

## Task Another binder to look at: Ab7 ADC (Ab7 conjugated as in Formula XI, DAR of 8) (antibody, human IgG1, lambda, L234A L235A, V domains shown, camptothecin analog linker-payload of Formula XI on cysteine thiols after full reduction, DAR of 8 per antibody; positions not given, Antibody-drug conjugate of Ab7; also called Ab7 (ADC column)) VH: QVQLVQSGAEVKKPGASVKVSCKASGYTFTNYYMHWVRQAPGQGLEWMGIINPSSGSASYAQKFQGRVTMTRDTSTSTVYMELSSLRSEDTAVYYCAREGVGRDILQAFDIWGQGTLVTVSS VL: QSVLTQPPSVSEAPRQRVTISCSGSSSNIGNNAVNWYQQLPGKAPKLLIYYDDLLPSGVSDRFSGSKSGTSASLAISGLQSEDEADYYCAAWDDSLNGHVFGGGTKLTVLG
## Result true (1)
